Target: hErbB3.mmh (soluble monomeric human ErbB3 extracellular domain with C-terminal myc-myc-hexahistidine tag) (human, UniProt P21860 20-642)
Sequence (P21860 other isoform, or with tags, fused parts or gaps): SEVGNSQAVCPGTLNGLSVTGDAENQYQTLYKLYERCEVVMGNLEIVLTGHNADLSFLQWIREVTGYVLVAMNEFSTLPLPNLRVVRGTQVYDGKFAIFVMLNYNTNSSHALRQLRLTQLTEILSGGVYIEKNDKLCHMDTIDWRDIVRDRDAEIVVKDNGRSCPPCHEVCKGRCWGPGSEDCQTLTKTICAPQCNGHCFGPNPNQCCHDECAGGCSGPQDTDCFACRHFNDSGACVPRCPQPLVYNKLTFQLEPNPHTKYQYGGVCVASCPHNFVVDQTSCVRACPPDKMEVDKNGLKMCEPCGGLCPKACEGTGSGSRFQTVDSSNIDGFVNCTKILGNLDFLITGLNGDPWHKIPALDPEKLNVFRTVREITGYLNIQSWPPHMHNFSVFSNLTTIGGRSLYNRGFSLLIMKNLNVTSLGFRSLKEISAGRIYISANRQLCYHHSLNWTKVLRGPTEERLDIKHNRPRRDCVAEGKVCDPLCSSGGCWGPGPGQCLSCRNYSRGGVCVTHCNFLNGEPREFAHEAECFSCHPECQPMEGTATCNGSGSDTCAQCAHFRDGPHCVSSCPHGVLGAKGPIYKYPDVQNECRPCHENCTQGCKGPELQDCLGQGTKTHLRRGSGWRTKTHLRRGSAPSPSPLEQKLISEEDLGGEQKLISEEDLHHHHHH
Assay: SPR (Biacore), 25 C, mAb capture format
endpoint_label: koff (s⁻¹)
All answers are understood in s⁻¹, so give the number only.

Given H4H2148P (antibody, V domains shown, Fully human, human IgG4 Fc (H4H prefix)) VH: EVQLVESGGGLVHPGRSLRLSCAASGFTFDDYAMHWVRQSPGKGLEWVSGISWNSVIKHSTDSVRGRFTISRDNAKNSLYLQMNSLKPEDTAFYYCAKDEDDWNYLDYWGQGTLVTVSS VL: DIQMTQSPSSVSASVGDRVTITCRASQDINSWLAWYQQKPGKAPKLLIYTSSNLQSGVPSRFSGSGSGTDFTLTISSLQPEDFATYYCQQSDSFPFTFGPGTKVDIKR , state its recorded koff.
3.47e-05
